Data credit: patent US8557853B2

- tested-target: alpha2C receptor (Homo sapiens)
- Sequence (P18825 whole entry): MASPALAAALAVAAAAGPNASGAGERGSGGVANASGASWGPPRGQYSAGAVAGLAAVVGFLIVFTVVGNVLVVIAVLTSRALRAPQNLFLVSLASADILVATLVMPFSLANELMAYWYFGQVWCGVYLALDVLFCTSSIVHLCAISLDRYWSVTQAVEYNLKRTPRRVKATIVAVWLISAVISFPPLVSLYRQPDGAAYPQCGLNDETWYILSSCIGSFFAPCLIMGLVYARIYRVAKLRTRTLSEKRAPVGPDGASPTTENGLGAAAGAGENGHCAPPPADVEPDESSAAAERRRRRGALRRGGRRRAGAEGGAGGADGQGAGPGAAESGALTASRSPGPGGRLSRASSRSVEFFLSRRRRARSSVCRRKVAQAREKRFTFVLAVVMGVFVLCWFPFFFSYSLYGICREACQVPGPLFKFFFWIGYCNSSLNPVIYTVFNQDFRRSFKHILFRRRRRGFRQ
- method-description: RSAT (Receptor Selection and Amplification Technology) assay, alpha 2C
- condition: RSAT, transfected NIH-3T3 cells; "not active" = not active at concentrations less than 10 micromolar
Reported EC50 by item:
Answer format: numeric, nM implied, no suffix.

compound: O=C(NCCF)NCc1cccc(Br)n1 [Compound 38]
tested-target: alpha2C receptor (Homo sapiens)
reported-metric: EC50
reported: 2160

Request: Tell me the measured EC50 of C[C@H](NC(=O)NCCF)c1ccccc1 [Compound 33] , please.
Result: 513

Request: For the compound COc1c(C)cccc1CNC(=O)NCCF [Compound 17] , what EC50 is on record?
Result: 685

Request: // lookup EC50 for O=C(NCCF)NCc1cccc(O)c1 [Compound 42]
Result: 1060

Request: Recorded EC50 for O=C(NCCF)Nc1cccc2c1CCC2 [Compound 29, 1-(2-fluoro-ethyl)-3-indan-4-yl-urea] , please?
Result: 2550

Request: Query: EC50; subject: O=C(NCCF)NCc1ccccn1 [Compound 35]
Result: 3710

Request: Bench note: what EC50 did Cc1cccc(CNC(=O)NCCF)c1 [Compound 5] show?
Result: 876

Request: Would you kindly share the measured EC50 for O=C(NCCF)NCc1cccc(Br)c1 [Compound 7] ?
Result: 556

Request: Give its EC50 value. Item: O=C(NCCF)NCc1ccc(O)cc1 [Compound 41]
Result: 800

Request: Reported EC50, compound Cc1cccc(CNC(=O)NCCF)n1 [Compound 36] : ____
Result: 1800

Request: Given the compound O=C(NCCF)NCc1cccc(Br)c1Cl [Compound 15] , what is its reported EC50?
Result: 297

Request: Entry Cc1ccccc1CNC(=O)NCCF [Compound 2] : reported EC50 = ?
Result: 1290

Request: Give the measured EC50 of O=C(NCCF)Nc1cccc2c1CCCC2 [Compound 28] .
Result: 285

Request: # get_value(readout='EC50', item= O=C(NCCF)NCc1cccc(I)c1I [Compound 13] )
Result: 192

---

- tested-target: alpha2B receptor (Homo sapiens, UniProt P18089)
- Construct: expressed in transfected cells; host or cells: NIH-3T3 cells
- Sequence (P18089 1-450): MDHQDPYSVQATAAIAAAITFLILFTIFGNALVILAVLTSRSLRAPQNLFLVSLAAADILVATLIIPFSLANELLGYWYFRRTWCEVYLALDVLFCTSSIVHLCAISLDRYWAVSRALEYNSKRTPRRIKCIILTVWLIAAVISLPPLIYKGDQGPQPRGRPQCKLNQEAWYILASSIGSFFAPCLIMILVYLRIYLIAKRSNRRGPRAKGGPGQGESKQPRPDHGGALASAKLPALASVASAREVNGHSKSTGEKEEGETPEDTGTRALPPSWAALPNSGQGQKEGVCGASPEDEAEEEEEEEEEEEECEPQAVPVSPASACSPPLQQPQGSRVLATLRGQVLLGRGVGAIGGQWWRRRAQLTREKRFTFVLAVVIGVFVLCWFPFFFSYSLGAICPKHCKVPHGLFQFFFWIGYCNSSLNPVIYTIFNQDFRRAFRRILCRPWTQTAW
- method-description: RSAT (Receptor Selection and Amplification Technology) assay, alpha 2B
- Type: cell-based
- condition: intrinsic activity: ratio of maximal effect of drug to maximal effect of standard full agonist brimonidine (UK14304)
reported-metric: Alpha 2B IA
Lab note: jot down the number only; don't add units.

compound: Cc1cccc(C(NC(=O)NCCF)c2ccc(C)s2)c1 (stereo not drawn) [Compound 34]
tested-target: alpha2B receptor (Homo sapiens, UniProt P18089)
Alpha 2B IA: 0.41

Request: Which measured Alpha 2B IA value corresponds to O=C(NCCF)NCc1cccc(O)c1 [Compound 42] ?
Result: 0.81

Request: Query (compound): O=C(NCCF)NCc1cccc(F)c1 [Compound 4] ; field requested: Alpha 2B IA
Result: 1.14

Request: What value of measured Alpha 2B IA is listed for O=C(NCCF)NCc1cccc2c1OCO2 [Compound 31] ?
Result: 1.0

Request: // query Alpha 2B IA value for entry O=C(NCCF)Nc1ccc2ccccc2c1 [Compound 25]
Result: 0.99

Request: // Alpha 2B IA lookup, key: Cc1nn(C)c(C)c1CNC(=O)NCCF [Compound 43]
Result: 0.49

Request: Which Alpha 2B IA value is on record for Cc1cccc(NC(=O)NCCF)c1C [Compound 27] ?
Result: 0.9

Request: Please look up its Alpha 2B IA: O=C(NCCF)NCc1ccccc1I [Compound 12]
Result: 0.89

Request: Alpha 2B IA lookup needed for CCc1ccccc1NC(=O)NCCF [Compound 24] , thanks.
Result: 0.82

Request: Entry O=C(NCCF)NCc1cccc(Br)c1Cl [Compound 15] has what Alpha 2B IA?
Result: 1.3

Request: Form field: reported Alpha 2B IA of O=C(NCCF)NCc1ccccc1Br [Compound 6]
Result: 0.9

Request: I am curious: what Alpha 2B IA value has been reported for O=C(NCCF)NCc1cccc(Br)n1 [Compound 38] ?
Result: 0.85

---

- tested-target: alpha2A receptor (Homo sapiens, UniProt P08913)
- Construct: expressed in transfected cells; host or cells: NIH-3T3 cells
- Sequence (P08913 whole entry): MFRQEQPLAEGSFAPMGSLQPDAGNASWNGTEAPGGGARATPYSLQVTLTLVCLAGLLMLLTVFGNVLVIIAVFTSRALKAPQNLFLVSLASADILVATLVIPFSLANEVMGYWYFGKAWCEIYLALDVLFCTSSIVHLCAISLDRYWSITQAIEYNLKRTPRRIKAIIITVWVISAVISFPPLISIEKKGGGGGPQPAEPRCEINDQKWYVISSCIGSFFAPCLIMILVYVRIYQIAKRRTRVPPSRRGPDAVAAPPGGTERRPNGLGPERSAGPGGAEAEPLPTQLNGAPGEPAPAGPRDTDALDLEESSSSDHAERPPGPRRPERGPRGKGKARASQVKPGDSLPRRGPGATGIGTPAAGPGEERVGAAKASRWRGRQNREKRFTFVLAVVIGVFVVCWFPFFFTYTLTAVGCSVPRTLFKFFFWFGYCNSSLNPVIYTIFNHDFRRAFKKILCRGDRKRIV
- method-description: RSAT (Receptor Selection and Amplification Technology) assay, alpha 2A
- Assay type: cell-based
- condition: RSAT, transfected NIH-3T3 cells; "not active" = not active at concentrations less than 10 micromolar
reported-metric: Alpha 2A EC50

Example cases with answers are listed next.
compound: Cc1cccnc1CNC(=O)NCCF
reported: not active

compound: O=C(NCCF)NCc1cccc(C(F)(F)F)c1Cl
reported: not active

compound: Cc1cc(CNC(=O)NCCF)nn1C
reported: not active

compound: O=C(NCCF)NC(c1ccccc1)c1ccccc1 [Compound 32, 1-benzhydryl-3-(2-fluoro-ethyl)-urea]
reported: not active

compound: O=C(NCCF)NCc1cccc(Br)n1
reported: not active

Request: Request the reported Alpha 2A EC50 associated with "O=C(NCCF)Nc1ccc2c(c1)CCC2"
Result: not active

---

Each entry below carries its reported pEC50.
- tested-target: alpha2C receptor (Homo sapiens)
- method-description: RSAT (Receptor Selection and Amplification Technology) assay, alpha 2C
- condition: RSAT, transfected NIH-3T3 cells; "not active" = not active at concentrations less than 10 micromolar
pEC50 field: float, defined as -log10 of concentration (mol/L).

compound: Cc1c(Cl)cccc1CNC(=O)NCCF [Compound 18]
tested-target: alpha2C receptor (Homo sapiens)
pEC50: 5.86
--
compound: O=C(NCCF)NCc1cccc(I)c1 [Compound 9]
tested-target: alpha2C receptor (Homo sapiens)
pEC50: 6.52
--
compound: O=C(NCCF)NCc1ccccc1F [Compound 3]
tested-target: alpha2C receptor (Homo sapiens)
pEC50: 6.44

Attention now turns to another entry.
Request: Name the recorded pEC50 for Cc1cc(CNC(=O)NCCF)nn1C [Compound 44] .
Result: 5.38

---

- tested-target: alpha2A receptor (Homo sapiens, UniProt P08913)
- Construct: expressed in transfected cells; host or cells: NIH-3T3 cells
- method-description: RSAT (Receptor Selection and Amplification Technology) assay, alpha 2A
- Format: cell-based
- condition: intrinsic activity: ratio of maximal effect of drug to maximal effect of standard full agonist brimonidine (UK14304)
Mark f for Alpha 2A IA values under 0.5, and t for everything at or above.

Example entries and their recorded answers appear below.
compound: CCc1ccccc1NC(=O)NCCF [Compound 24]
tested-target: alpha2A receptor (Homo sapiens, UniProt P08913)
label: f

compound: O=C(NCCF)Nc1cccc2c1CCC2 [Compound 29, 1-(2-fluoro-ethyl)-3-indan-4-yl-urea]
tested-target: alpha2A receptor (Homo sapiens, UniProt P08913)
label: f

Request: Form field: Alpha 2A IA at least 0.5? Entry: Cc1nn(C)c(C)c1CNC(=O)NCCF [Compound 43]
Result: f

Request: Identify whether the reported Alpha 2A IA of the following compound is 0.5 or greater: O=C(NCCF)NCc1cccc(I)c1 [Compound 9]
Result: f

Request: I'd appreciate it if you could say whether O=C(NCCF)NCc1cccc(Cl)c1F [Compound 1] has Alpha 2A IA at least equal to 0.5.
Result: t

Request: Say whether COc1c(C)cccc1CNC(=O)NCCF [Compound 17] shows Alpha 2A IA of 0.5 or more.
Result: t

Request: Does Alpha 2A IA meet or surpass 0.5 for O=C(NCCF)NCc1cccc2c1OCO2 [Compound 31] ?
Result: f

Request: Has Cc1ccccc1NC(=O)NCCF [Compound 22, 1-(2-fluoro-ethyl)-3-o-tolyl-urea] a recorded Alpha 2A IA greater than or equal to 0.5?
Result: f

Request: Is the recorded value of Alpha 2A IA equal to or greater than 0.5 for this compound? O=C(NCCF)Nc1cccc2c1CCCC2 [Compound 28]
Result: f

Request: Dear colleague, could you confirm whether O=C(NCCF)NCc1cccc(Br)c1Cl [Compound 15] has Alpha 2A IA at or above 0.5?
Result: f

Request: Is it the case that Cc1cccc(CNC(=O)NCCF)c1 [Compound 5] has Alpha 2A IA reaching or exceeding 0.5?
Result: f

Request: Check this compound for Alpha 2A IA at or above 0.5: Cc1cccc(NC(=O)NCCF)c1C [Compound 27]
Result: t
